- method: IV and PO pharmacokinetic studies of prodrug salts (Iab, Ibb, Icb) in the dog, with historical parent data
- Type: in vivo, beagle dogs
- cond: plasma, po, 5 mg/kg, read-out: AUCtot
measurement name: AUC (µM·h)

A. O=C(C(=O)N1CCN(C(=O)c2ccccc2)CC1)c1c[nH]c2c(-n3ccnn3)ncc(F)c12
B. COc1cnc(-n2cnc(C)n2)c2[nH]cc(C(=O)C(=O)N3CCN(C(=O)c4ccccc4)CC3)c12
Req: Returns: the argument ( A or B ) having the larger AUC. Your choice should be expressed through its label.
Resp: B
(B: 63 µM·h, A: 30 µM·h)

----------
- method: Single-dose toxicokinetic and tolerability study of prodrugs in dogs
- Assay type: in vivo, dog
- cond: IVa in female dogs, Iab 24 mg/kg (19 IVa equiv.), Solution; Dogs #1201, #1202
measurement name: Cmax (µM)
Only the number, expressed in µM, is required.

Req: Can you share its Cmax? I mean this molecule: COc1ncc(OC)c2c(C(=O)C(=O)N3CCN(C(=O)c4ccccc4)CC3)c[nH]c12
Resp: 66.5

----------
- method: Single-dose toxicokinetic and tolerability study of prodrugs in dogs
- Type: in vivo, dog
- cond: male, dog, plasma, po, 25 mg/kg, dog 2101M, day 1, Icb 25 mg/kg (IVc equiv. 20) QD dry-filled capsules
measurement name: AUC(0-inf) (µM·h)
Only the number, expressed in µM·h, is required.

Req: Can you share its AUC(0-inf)? I mean this molecule: COc1cnc(-n2cnc(C)n2)c2[nH]cc(C(=O)C(=O)N3CCN(C(=O)c4ccccc4)CC3)c12
Resp: 365

----------
- method: IV and PO pharmacokinetic studies of prodrug salts (Iab, Ibb, Icb) in the dog, with historical parent data
- Assay type: in vivo, beagle dogs
- cond: plasma, po, 5 mg/kg, read-out: T1/2 (converted)
measurement name: half-life (h)
Only the number, expressed in h, is required.

Req: Can you share its half-life? I mean this compound: O=C(C(=O)N1CCN(C(=O)c2ccccc2)CC1)c1c[nH]c2c(-n3ccnn3)ncc(F)c12 [IVb]
Resp: 2.7

----------
- method: Single-dose toxicokinetic and tolerability study of prodrugs in dogs
- Format: in vivo, dog
- cond: female, dog, plasma, oral, 46 mg/kg, dog 3201F, day 8, Icb 46 mg/kg BID dry-filled capsules; read-out: C24h
- Description: A multi-phase study was conducted to evaluate the tolerability of the prodrug, Iab (monolysine salt) at dosages of 24, 90, or 240 mg/kg (free acid, molar equivalent to 19, 71, or 190 mg/kg of parent IVa, respectively) and the toxicokinetics of lab and IVa (4). Iab was administered to two female dogs/group once daily either as an aqueous solution (24 or 90 mg/kg) or dry-filled capsules (24, 90 [once and twice daily] or 240 mg/kg). […]
measurement name: concentration at 24 h (nM)
Only the number, expressed in nM, is required.

Req: Can you share its concentration at 24 h? I mean this compound: COc1cnc(-n2cnc(C)n2)c2[nH]cc(C(=O)C(=O)N3CCN(C(=O)c4ccccc4)CC3)c12 [IVc]
Resp: 307

----------
- method: Effect of food on oral absorption of IVa in dogs after Iab or IVa capsules
- Type: in vivo, dog
- cond: dog, plasma, po, 20 mg/kg, dogs, IVa Clinical Form Capsules, Fed
measurement name: half-life (h)
Only the number, expressed in h, is required.

Req: Can you share its half-life? I mean this compound: COc1ncc(OC)c2c(C(=O)C(=O)N3CCN(C(=O)c4ccccc4)CC3)c[nH]c12 [IVa]
Resp: 8

----------
- method: Single-dose oral toxicokinetic study of prodrugs in rats
- Assay type: in vivo, rat
- cond: CD, rat, plasma; male rats, Iab 72 mg/kg PO; analyte = label; read-out: C24 h
measurement name: concentration at 24 h (nM)
Only the number, expressed in nM, is required.

Req: Can you share its concentration at 24 h? I mean this molecule: COc1ncc(OC)c2c(C(=O)C(=O)N3CCN(C(=O)c4ccccc4)CC3)c[nH]c12 [IVa]
Resp: 27

----------
- method: IV and oral rat PK (MAP) studies A, B, C of phosphate prodrugs and parent studies A1, B1, C1
- Format: in vivo, Sprague-Dawley rats
- cond: male, Sprague-Dawley, rat, in vivo, 5 mg/kg; rats, historic, after PO dosing of parent 5 mpk
measurement name: Cmax (µM)
Only the number, expressed in µM, is required.

Req: Can you share its Cmax? I mean this molecule: O=C(C(=O)N1CCN(C(=O)c2ccccc2)CC1)c1c[nH]c2c(-n3ccnn3)ncc(F)c12 [IVb]
Resp: 9.5

----------
- method: Single-dose oral toxicokinetic study of prodrugs in rats
- Assay type: in vivo, rat
- cond: CD, rat, plasma; male rats, single oral dose Iab 72 mg/kg (57 IVa equiv.); analyte = label
measurement name: Cmax (µM)
Only the number, expressed in µM, is required.

{"molecule": "COc1cnc(OC)c2c1c(C(=O)C(=O)N1CCN(C(=O)c3ccccc3)CC1)cn2COP(=O)(O)O [Iab]", "endpoint unit": "µM", "Cmax": 0.095}

Req: Can you share its Cmax? I mean this molecule: COc1ncc(OC)c2c(C(=O)C(=O)N3CCN(C(=O)c4ccccc4)CC3)c[nH]c12 [IVa]
Resp: 104

----------
- method: Single-dose toxicokinetic and tolerability study of prodrugs in dogs
- Format: in vivo, dog
- cond: female, dog, plasma, po, 24 mg/kg, IVa, Iab 24 mg/kg Solution; Dogs #1201, #1202; read-out: T½ (converted)
- Description: A multi-phase study was conducted to evaluate the tolerability of the prodrug, Iab (monolysine salt) at dosages of 24, 90, or 240 mg/kg (free acid, molar equivalent to 19, 71, or 190 mg/kg of parent IVa, respectively) and the toxicokinetics of lab and IVa (4). Iab was administered to two female dogs/group once daily either as an aqueous solution (24 or 90 mg/kg) or dry-filled capsules (24, 90 [once and twice daily] or 240 mg/kg). […]
measurement name: half-life (h)
Only the number, expressed in h, is required.

Req: Can you share its half-life? I mean this compound: COc1ncc(OC)c2c(C(=O)C(=O)N3CCN(C(=O)c4ccccc4)CC3)c[nH]c12
Resp: 3.2

----------
Attribute: half-life
- method: IV and oral rat PK (MAP) studies A, B, C of phosphate prodrugs and parent studies A1, B1, C1
- Type: in vivo, Sprague-Dawley rats
- cond: male, Sprague-Dawley, rat, plasma, po, 5 mg/kg, rats, after PO prodrug dosing equivalent to 5 mpk of parent; read-out: T1/2 p.o. (converted)
Only the number, expressed in h, is required.

{"compound structure": "O=C(C(=O)N1CCN(C(=O)c2ccccc2)CC1)c1c[nH]c2c(-n3ccnn3)ncc(F)c12", "half-life (h)": 2.4}

# input for lookup
Req: Can you share its half-life? I mean this compound: COc1ncc(OC)c2c(C(=O)C(=O)N3CCN(C(=O)c4ccccc4)CC3)c[nH]c12
Resp: 3.3

----------
- method: IV and PO pharmacokinetic studies of prodrug salts (Iab, Ibb, Icb) in the monkey, with historical parent data
- Assay type: in vivo, cynomolgus monkeys
- cond: male, cynomolgus monkey, plasma; monkey, oral prodrug; read-out: Bioavailability (%) of parent from prodrug
measurement name: bioavailability (%)

{"compound": "COc1ncc(OC)c2c(C(=O)C(=O)N3CCN(C(=O)c4ccccc4)CC3)c[nH]c12 [IVa]", "measurement name": "bioavailability", "observed measurement": 66}

1. O=C(C(=O)N1CCN(C(=O)c2ccccc2)CC1)c1c[nH]c2c(-n3ccnn3)ncc(F)c12 [IVb]
2. COc1cnc(-n2cnc(C)n2)c2[nH]cc(C(=O)C(=O)N3CCN(C(=O)c4ccccc4)CC3)c12 [IVc]
Req: In terms of reported bioavailability, does 1 or 2 have the smaller number? Your choice should be expressed through its label.
Resp: 2

----------
- method: Single-dose toxicokinetic and tolerability study of prodrugs in dogs
- Type: in vivo, dog
- cond: female, dog, plasma, po, 240 mg/kg, Table 14: 240 mg/kg (190 IVa equiv.), Formulation Solution; Dogs #2201, #2202
measurement name: Cmax (µM)
Only the number, expressed in µM, is required.

Req: Can you share its Cmax? I mean this compound: COc1ncc(OC)c2c(C(=O)C(=O)N3CCN(C(=O)c4ccccc4)CC3)c[nH]c12 [IVa]
Resp: 172

----------
- method: Single-dose toxicokinetic and tolerability study of prodrugs in dogs
- Format: in vivo, dog
- cond: female, dog, plasma, oral, 24 mg/kg, IVa, Iab 24 mg/kg Dry-filled capsule; Dogs #4201, #4202; read-out: C24 h
measurement name: concentration at 24 h (nM)
Only the number, expressed in nM, is required.

Req: Can you share its concentration at 24 h? I mean this compound: COc1ncc(OC)c2c(C(=O)C(=O)N3CCN(C(=O)c4ccccc4)CC3)c[nH]c12
Resp: 1400
